- system: C-X-C chemokine receptor type 3 (Homo sapiens)
- experiment-summary: Antagonist activity at human recombinant CXCR3 receptor expressed in CHO-K1 cells assessed as human IP10-induced calcium flux by FLIPR assay
# log10 of IC50 per entry
Log scale reminder: IC50 in µM, then log10 taken.

>  <item-smiles>
CC1(C)[C@@H]2CC[C@@]1(CS(=O)(=O)N1CCN(c3cc(C(F)(F)F)ccn3)CC1)C(=O)C2

>  <system>
C-X-C chemokine receptor type 3 (Homo sapiens)

>  <reported-measurement>
1.40

$$$$
>  <item-smiles>
CC1(C)[C@@H]2CC[C@@]1(CS(=O)(=O)NC1CCN(c3ccc(C(F)(F)F)cn3)CC1)C(=O)C2

>  <system>
C-X-C chemokine receptor type 3 (Homo sapiens)

>  <reported-measurement>
1.20

$$$$
>  <item-smiles>
C[C@@H]1CN(S(=O)(=O)C[C@]23CC[C@H](CC2=O)C3(C)C)CCN1c1ncc(C(F)(F)F)cc1F

>  <system>
C-X-C chemokine receptor type 3 (Homo sapiens)

>  <reported-measurement>
-0.30

$$$$
>  <item-smiles>
CC1(C)[C@@H]2CC[C@@]1(CS(=O)(=O)N1CCN(c3ccc(Br)cn3)CC1)C(=O)C2

>  <system>
C-X-C chemokine receptor type 3 (Homo sapiens)

>  <reported-measurement>
0.20

$$$$
>  <item-smiles>
CC1(C)[C@@H]2CC[C@@]1(CS(=O)(=O)N1CCN(c3ccc(C(F)(F)F)cn3)CC1)C(=O)C2

>  <system>
C-X-C chemokine receptor type 3 (Homo sapiens)

>  <reported-measurement>
-0.60

$$$$
>  <item-smiles>
CC1(C)[C@@H]2CC[C@@]1(CS(=O)(=O)N1CCC(Nc3ccc(C(F)(F)F)cn3)CC1)C(=O)C2

>  <system>
C-X-C chemokine receptor type 3 (Homo sapiens)

>  <reported-measurement>
1.50

$$$$
>  <item-smiles>
CC1(C)[C@@H]2CC[C@@]1(CS(=O)(=O)N1CCN(c3cc4ccccc4cn3)CC1)C(=O)C2

>  <system>
C-X-C chemokine receptor type 3 (Homo sapiens)

>  <reported-measurement>
1.20

$$$$

Now examine the next entry.
Please fill in: log10 of IC50 reported for `C[C@@H]1CN(c2ccc(C(F)(F)F)cn2)[C@@H](C)CN1S(=O)(=O)C[C@]12CC[C@H](CC1=O)C2(C)C` = 0.80

###

- system: C-X-C chemokine receptor type 3 (Homo sapiens)
- Sequence (P49682 whole entry): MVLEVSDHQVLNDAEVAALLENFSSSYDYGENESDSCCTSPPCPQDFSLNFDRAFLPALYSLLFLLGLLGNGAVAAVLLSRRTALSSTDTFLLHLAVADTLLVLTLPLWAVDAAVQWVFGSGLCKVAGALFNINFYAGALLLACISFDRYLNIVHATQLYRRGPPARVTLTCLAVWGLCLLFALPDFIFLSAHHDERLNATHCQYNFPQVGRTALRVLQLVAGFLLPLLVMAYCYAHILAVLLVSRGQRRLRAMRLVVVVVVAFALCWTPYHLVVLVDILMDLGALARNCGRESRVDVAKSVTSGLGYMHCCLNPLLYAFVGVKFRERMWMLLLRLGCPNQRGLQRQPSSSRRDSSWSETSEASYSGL
- experiment-summary: Antagonist activity at human recombinant CXCR3 receptor expressed in CHO-K1 cells assessed as human IP10-induced calcium flux by FLIPR assay
# IC50 per entry
Give the number; µM is assumed, so skip it.

Reference set (5 entries):
>  <compound>
CC1(C)[C@@H]2CC[C@@]1(CS(=O)(=O)N1CCN(c3ccc(C(F)(F)F)cn3)CC1)C(O)C2 (stereo partly drawn)

>  <system>
C-X-C chemokine receptor type 3 (Homo sapiens)

>  <result-unit>
µM

>  <IC50>
0.158

$$$$
>  <compound>
CC1(C)[C@@H]2CC[C@@]1(CS(=O)(=O)N1CCN(c3ncc(C(F)(F)F)cc3Cl)CC1)C(=O)C2

>  <system>
C-X-C chemokine receptor type 3 (Homo sapiens)

>  <result-unit>
µM

>  <IC50>
0.398

$$$$
>  <compound>
CC1(C)[C@@H]2CC[C@@]1(CS(=O)(=O)N1CCN(c3nc(Cl)c(C(F)(F)F)cc3Cl)CC1)C(=O)C2

>  <system>
C-X-C chemokine receptor type 3 (Homo sapiens)

>  <result-unit>
µM

>  <IC50>
0.316

$$$$
>  <compound>
CCNC1C[C@H]2CC[C@]1(CS(=O)(=O)N1CCN(c3ccc(C(F)(F)F)cn3)CC1)C2(C)C (stereo partly drawn)

>  <system>
C-X-C chemokine receptor type 3 (Homo sapiens)

>  <result-unit>
µM

>  <IC50>
7.94

$$$$
>  <compound>
CC1(C)[C@@H]2CC[C@@]1(CS(=O)(=O)N1CCN(c3cccc(C(F)(F)F)n3)CC1)C(=O)C2

>  <system>
C-X-C chemokine receptor type 3 (Homo sapiens)

>  <result-unit>
µM

>  <IC50>
25.1

$$$$

Readout IC50 for `C[C@H]1CN(S(=O)(=O)C[C@]23CC[C@H](C[C@H]2O)C3(C)C)CCN1c1ccc(C(F)(F)F)cn1` , test system C-X-C chemokine receptor type 3 (Homo sapiens), was 0.316

###

- experiment-summary: Permeability across artificial membrane
- Assay type: ADME
- condition-info: PAMPA; read-out: permeability
reported-endpoint: Papp
Please state the value followed by its unit.

>  <item-smiles>
CC1(C)[C@@H]2CC[C@@]1(CS(=O)(=O)N1CCN(c3ncc(C(F)(F)F)cc3F)[C@H](CO)C1)C(=O)C2

>  <Papp>
56 ×10⁻⁶ cm/s

$$$$

Now examine the next entry.
Please fill in: Papp reported for `C[C@H]1CN(S(=O)(=O)C[C@]23CC[C@H](CC2=O)C3(C)C)CCN1c1ncc(C(F)(F)F)cc1F` = 35.2 ×10⁻⁶ cm/s

###

- Test system: Rattus norvegicus
- experiment-summary: Half life in rat at 1.1 mg/kg, iv and 2.0 mg/kg, po
- Format: ADME, organism-based
- condition-info: in vivo
reported-endpoint: t1/2 (min)
Give the number; min is assumed, so skip it.

Please fill in: t1/2 reported for `C[C@H]1CN(S(=O)(=O)C[C@]23CC[C@H](CC2=O)C3(C)C)CCN1c1ncc(C(F)(F)F)cc1F` = 30

###

- system: Voltage-gated inwardly rectifying potassium channel KCNH2 (Homo sapiens)
- Sequence (Q12809 whole entry): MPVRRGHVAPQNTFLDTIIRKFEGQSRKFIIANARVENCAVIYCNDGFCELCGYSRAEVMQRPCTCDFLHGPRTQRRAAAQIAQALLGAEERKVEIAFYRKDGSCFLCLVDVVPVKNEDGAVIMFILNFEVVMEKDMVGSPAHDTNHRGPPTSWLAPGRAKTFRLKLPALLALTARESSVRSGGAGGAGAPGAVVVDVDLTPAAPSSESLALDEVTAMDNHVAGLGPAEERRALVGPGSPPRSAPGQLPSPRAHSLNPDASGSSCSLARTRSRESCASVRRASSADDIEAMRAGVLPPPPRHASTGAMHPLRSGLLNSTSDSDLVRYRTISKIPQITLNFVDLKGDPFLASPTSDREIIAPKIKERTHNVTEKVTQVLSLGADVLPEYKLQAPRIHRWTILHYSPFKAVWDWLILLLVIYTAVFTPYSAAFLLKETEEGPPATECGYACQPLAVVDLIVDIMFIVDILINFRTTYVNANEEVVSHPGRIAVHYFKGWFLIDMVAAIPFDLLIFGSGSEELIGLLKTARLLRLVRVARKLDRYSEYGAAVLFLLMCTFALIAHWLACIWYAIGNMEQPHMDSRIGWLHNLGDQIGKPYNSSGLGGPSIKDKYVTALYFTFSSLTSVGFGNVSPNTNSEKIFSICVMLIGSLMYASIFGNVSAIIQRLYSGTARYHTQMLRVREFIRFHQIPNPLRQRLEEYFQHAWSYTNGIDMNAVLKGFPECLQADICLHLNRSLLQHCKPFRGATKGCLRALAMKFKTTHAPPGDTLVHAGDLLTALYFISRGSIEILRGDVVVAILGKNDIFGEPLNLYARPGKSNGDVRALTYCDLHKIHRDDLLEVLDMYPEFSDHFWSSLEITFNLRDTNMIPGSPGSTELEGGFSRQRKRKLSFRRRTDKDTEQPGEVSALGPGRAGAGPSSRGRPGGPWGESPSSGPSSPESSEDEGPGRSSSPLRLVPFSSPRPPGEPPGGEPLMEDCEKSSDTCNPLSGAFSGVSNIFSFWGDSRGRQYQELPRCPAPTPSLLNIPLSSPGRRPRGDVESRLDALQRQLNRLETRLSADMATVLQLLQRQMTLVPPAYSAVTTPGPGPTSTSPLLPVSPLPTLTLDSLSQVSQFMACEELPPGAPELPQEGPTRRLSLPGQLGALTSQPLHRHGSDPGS
reported-endpoint: IC50

Readout IC50 for `C[C@H]1CN(S(=O)(=O)C[C@]23CC[C@H](CC2=O)C3(C)C)CCN1c1ncc(C(F)(F)F)cc1F` , test system Voltage-gated inwardly rectifying potassium channel KCNH2 (Homo sapiens), was > 63 µM

###

- experiment-summary: Aqueous solubility of the compound
- Type: physicochemical
- condition-info: buffer
reported-endpoint: solubility (µg/mL)
Give the number; µg/mL is assumed, so skip it.

>  <item-smiles>
C[C@H]1CN(S(=O)(=O)C[C@]23CC[C@H](CC2=O)C3(C)C)CCN1c1ncc(C(F)(F)F)cc1F

>  <solubility, µg/mL>
4

$$$$

Now examine the next entry.
Please fill in: solubility reported for `CC1(C)[C@@H]2CC[C@@]1(CS(=O)(=O)N1CCN(c3ncc(C(F)(F)F)cc3F)[C@H](CO)C1)C(=O)C2` = 40

###

- system: C-X-C chemokine receptor type 3 (Homo sapiens)
- Sequence (P49682 whole entry): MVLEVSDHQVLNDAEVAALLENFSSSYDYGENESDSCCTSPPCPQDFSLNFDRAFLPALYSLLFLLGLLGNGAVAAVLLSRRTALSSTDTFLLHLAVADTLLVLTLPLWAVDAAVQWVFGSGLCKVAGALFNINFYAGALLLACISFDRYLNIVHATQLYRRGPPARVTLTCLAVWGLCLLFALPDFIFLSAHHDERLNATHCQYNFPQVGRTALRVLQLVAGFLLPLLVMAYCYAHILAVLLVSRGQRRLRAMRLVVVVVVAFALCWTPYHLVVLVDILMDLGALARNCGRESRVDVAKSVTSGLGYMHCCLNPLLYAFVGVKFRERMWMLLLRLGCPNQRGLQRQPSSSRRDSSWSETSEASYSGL
- experiment-summary: Antagonist activity at human recombinant CXCR3 receptor expressed in CHO-K1 cells assessed as human IP10-induced calcium flux by FLIPR assay
# log10(IC50) per entry
Log scale reminder: IC50 in nM, then log10 taken.

>  <compound>
CC1(C)[C@@H]2CC[C@@]1(CS(=O)(=O)N1CCN(c3ncc(C(F)(F)F)cn3)CC1)C(=O)C2

>  <log10(IC50)>
2.50

$$$$
>  <compound>
C[C@H]1CN(S(=O)(=O)C[C@]23CC[C@H](CC24OCCO4)C3(C)C)CCN1c1ncc(C(F)(F)F)cc1F

>  <log10(IC50)>
1.60

$$$$
>  <compound>
CC1CN(c2ccc(C(F)(F)F)cn2)CCN1S(=O)(=O)C[C@]12CC[C@H](CC1=O)C2(C)C (some centres undefined)

>  <log10(IC50)>
2.80

$$$$
>  <compound>
C[C@H]1CN(S(=O)(=O)C[C@]23CC[C@H](CC2=O)C3(C)C)CCN1c1ccc(C(F)(F)F)cn1

>  <log10(IC50)>
2.20

$$$$
>  <compound>
CC1(C)[C@@H]2CC[C@@]1(CS(=O)(=O)N1CCN(c3ncc(C(F)(F)F)cc3F)CC1)C(=O)C2

>  <log10(IC50)>
2.20

$$$$

Please fill in: log10(IC50) reported for `C[C@H]1CN(S(=O)(=O)C[C@]23CC[C@H](C[C@H]2O)C3(C)C)CCN1c1ncc(C(F)(F)F)cc1F` = 1.80

Please fill in: log10(IC50) reported for CC1(O)C[C@H]2CC[C@]1(CS(=O)(=O)N1CCN(c3ccc(C(F)(F)F)cn3)CC1)C2(C)C (some centres undefined) = 2.30

The measured values listed here are drawn from ChEMBL document CHEMBL1139268.
